- Tested on: murine TTC39B mRNA
- Test Method Notes: Dose-dependent antisense inhibition of murine TTC39B in mouse primary hepatocytes (Example 3)
- Format: cell-based
- Condition Context: 12.5 nM, cytofectin, ~16 h
- Procedure: Cells were plated at a density of 10,000 cells per well and transfected using cytofectin reagent with 6.25 nM, 12.5 nM, 25 nM, 50 nM, 100 nM, and 200 nM concentrations of antisense oligonucleotide, as specified in Table 4. After a treatment period of approximately 16 hours, RNA was isolated from the cells and TTC39B mRNA levels were measured by quantitative real-time PCR. […] TTC39B mRNA levels were adjusted according to total RNA content, as measured by RIBOGREEN®. […]
Oligonucleotides are written 5' to 3', each unit as a sugar letter and its base; * is a phosphorothioate linkage, no mark a phosphodiester; rarer units and linkages stand in square brackets, end groups in braces. Plain capitals give the bases only. e = 2'-O-(2-methoxyethyl) (MOE); [5mC] = 5-methylcytosine; d = 2'-deoxy (DNA)
Test Readout: percent inhibition of TTC39B mRNA (%)
Answers are plain numbers, in %.

The examples below pair each entry with its known result.
query_sequence="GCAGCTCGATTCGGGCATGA (antisense eG*e[5mC]*eA*eG*e[5mC]*dT*d[5mC]*dG*dA*dT*dT*d[5mC]*dG*dG*dG*e[5mC]*eA*eT*eG*eA) [ISIS 447118]" endpoint_value=24
query_sequence="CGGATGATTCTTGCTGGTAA (antisense e[5mC]*eG*eG*eA*eT*dG*dA*dT*dT*d[5mC]*dT*dT*dG*d[5mC]*dT*eG*eG*eT*eA*eA) [ISIS 447114]" endpoint_value=5
query_sequence="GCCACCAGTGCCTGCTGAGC (antisense eG*e[5mC]*e[5mC]*eA*e[5mC]*d[5mC]*dA*dG*dT*dG*d[5mC]*d[5mC]*dT*dG*d[5mC]*eT*eG*eA*eG*e[5mC]) [ISIS 447143]" endpoint_value=25

// next entry
INPUT: Dear colleague, please send me the reported percent inhibition of TTC39B mRNA for TGTCAGTGACAGTGGCAGCT (antisense eT*eG*eT*e[5mC]*eA*dG*dT*dG*dA*d[5mC]*dA*dG*dT*dG*dG*e[5mC]*eA*eG*e[5mC]*eT) [ISIS 447159] when you can.
OUTPUT: 19
